Data origin: PubChem BioAssay (NCI)

- System: MDA-N
- ASSAY PROTOCOL: NCI tumour cell line growth inhibition, 48 h
MEASUREMENT KIND: TGI

compound="Cc1c(N=Nc2ccccc2)c(C)n(C2OC(CO)C(O)C(O)C2O)c(=S)c1C#N (configuration not stated)" assay_result="> 100 µM"
compound=COc1ccc2c3c([nH]c2c1)CCN(CCCC(=O)c1ccc(F)cc1)C3 assay_result="35.1 µM"
compound=O=C(O)c1cnc(-n2[nH]c3c(c2=O)CCCC3)[nH]c1=O assay_result="> 100 µM"
compound=Cc1cc(S(=O)(=O)Nc2nnc3cnc4ccccc4n23)c(S)cc1Cl assay_result="> 100 µM"
compound="CC1(C)CCC(C)(C)C1C(=O)NC(O)C(=O)O (configuration not stated)" assay_result="> 100 µM"
compound=O=C1CC[C@@]2(O)[C@H]3Cc4ccc(-c5ccccc5)c5c4[C@@]2(CCN3CC2CC2)[C@H]1O5 assay_result="32.9 µM"
compound=Cc1ccc(C(=O)Nc2ccc(CP(=O)(O)O)cc2CP(=O)(O)O)cc1NC(=O)Nc1cc(C(=O)Nc2ccc(CP(=O)(O)O)cc2CP(=O)(O)O)ccc1C assay_result="> 100 µM"
compound="Cc1ccc(C2=C(C#N)C(N)OC3=C2COc2ccccc23)cc1 (configuration not stated)" assay_result="> 100 µM"
compound="CC(O)(P(=O)(O)O)P(=O)(O)OCC(O)CN1CCOCC1 (configuration not stated)" assay_result="> 100 µM"
compound=c1csc(-c2ccsc2-c2cccs2)c1 assay_result="> 100 µM"
compound=CC(C)(C)OC(=O)CN1CCNCCN(CC(=O)OC(C)(C)C)CCNCC1 assay_result="> 100 µM"
compound=O=C(NC(=O)c1cc(-c2ccccc2)n[nH]1)c1ccccc1 assay_result="> 100 µM"
compound="CCCCCCCCCCCC[C@@H](O)[C@H]1CCC([C@H](O)CCCCC(=O)CCCCCCCC2=C[C@H](C)OC2=O)O1 (some centres not stated)" assay_result="> 50 µM"
compound=CC(=O)Nc1c(S(=O)(=O)c2ccccc2)c(C)c(C)n1Cc1ccccc1 assay_result="> 100 µM"
compound=NC1=Nc2cc(Cl)ccc2Sc2nc3ccccc3n21 assay_result="> 100 µM"
compound="CSc1ccn(C2CC(F)C(CO)O2)c(=O)n1 (configuration not stated)" assay_result="> 100 µM"
compound=O=S(=O)(NNc1ccccc1)c1ccccc1 assay_result="25.3 µM"
compound="CN(C)c1ccc(/C=C(\\NC(=O)c2ccccc2)C2=NC(CCC(=O)O)C(=O)O2)cc1 (configuration not stated)" assay_result="> 50 µM"
compound="CC(C)(C)C1CCC2c3c([nH]c4ccccc34)C3C(=O)N(c4ccc(Cl)cc4)C(=O)C3C2C1 (configuration not stated)" assay_result="> 100 µM"
compound=O=C(/C=C/c1cccc(Oc2ccccc2)c1)NCc1ccc(C(=O)NCCc2ccccc2)cc1 assay_result="> 100 µM"
compound=CC(=O)Oc1c2c(c3n(c1=O)CCCC3)C(=O)N(c1ccccc1)C2=O assay_result="> 100 µM"
compound=Nc1ccc(C(=O)N/C(=C\c2cccc([N+](=O)[O-])c2)c2nc3[nH]c(=S)[nH]c(=O)c3[nH]2)cc1 assay_result="> 100 µM"

----------
Below, each of the compounds is paired with its reported TGI value.
- Test system: A498 renal
- ASSAY PROTOCOL: NCI tumour cell line growth inhibition, 48 h
MEASUREMENT KIND: TGI (µM)

compound=CCOCCCn1c2c(c3c(O)cccc31)C(=O)c1ccccc1-2 target_or_system="A498 renal" operator== assay_result=52.5
compound=Nc1nc(Cl)cc(NC2(CO)CCC2)n1 target_or_system="A498 renal" operator=> assay_result=100
compound=CCOC(=O)NC(OC)(C(F)(F)F)C(F)(F)F target_or_system="A498 renal" operator=> assay_result=100
compound="CC1=C(SCCC(=O)OC(C[Se]C2=C(C)C(=O)c3ccccc3C2=O)C(=O)NCCCCCC(=O)OCc2ccccc2)C(=O)c2ccccc2C1=O (stereo not given)" target_or_system="A498 renal" operator=> assay_result=100
compound=COC(=O)c1c(C#N)c(N)nc2c1CCC2 target_or_system="A498 renal" operator=> assay_result=100
compound="NCC(O)CNC(=O)c1ccc(-c2ccc(-c3ccc(C(=O)NCC(O)CN)cc3)o2)cc1 (stereo not given)" target_or_system="A498 renal" operator== assay_result=73.5
compound="COC(=O)c1ccc(C)cc1CC1Cc2ccc(C)cc2C1=O (stereo not given)" target_or_system="A498 renal" operator== assay_result=9.19
compound=O=C1CC(c2ccccc2)=Nc2ccccc2N1 target_or_system="A498 renal" operator=> assay_result=100
compound="CC(=O)Oc1ccc2c(c1)CC[C@@H]1C2[C@@H](O[N+](=O)[O-])C[C@@]2(C)C1CC[C@@H]2O[N+](=O)[O-] (stereo not given in full)" target_or_system="A498 renal" operator== assay_result=32.8
compound=COC(=O)[C@H](Cc1cnc[nH]1)NC(=O)[C@@H](NC(=O)Nc1cc(C(F)(F)F)cc(C(F)(F)F)c1)C(C)C target_or_system="A498 renal" operator== assay_result=27.3

----------
- Test system: HOP-62 NSCLC
- ASSAY PROTOCOL: NCI tumour cell line growth inhibition, 48 h
MEASUREMENT KIND: GI50

compound=COc1cc(/C=C/C(=O)/C=C/c2ccc(-n3ccnc3C)cc2)ccc1O assay_result="3.18 µM"
compound=COc1ccc(/C(COc2ccc3oc(-c4ccccc4)cc(=O)c3c2)=N\O)cc1 assay_result="1.72 µM"
compound="Nc1nc([Se])c2ncn(C3OC(CO)C(O)C3O)c2n1 (stereo unspecified)" assay_result="3.73 µM"
compound="CCC(C)Nc1ccc(N)cc1 (stereo unspecified)" assay_result="4.14 µM"
compound=COc1ccc2c(c1)[nH]c(=O)c1c3cccc(F)c3cn21 assay_result="0.641 µM"
compound=NCCCC[C@@H]1NC(=O)[C@H](CC(=O)O)NC(=O)CNC(=O)[C@H](CCCN=C(N)N)NC(=O)[C@@H](N)CSSC[C@@H](C(=O)O)NC(=O)[C@H](CC(=O)O)NC(=O)[C@@H]2CCCN2C(=O)CNC1=O assay_result="> 100 µM"
compound=Cc1cccc2nc3ccccc3c(Nc3ccc(NS(C)(=O)=O)cc3)c12 assay_result="4.69 µM"
compound="CC(N)(Cc1c[nH]c2cccc(F)c12)C(=O)O (stereo unspecified)" assay_result="645 µM"
compound=NC(=O)c1cc([N+](=O)[O-])c(Cl)c([N+](=O)[O-])c1Cl assay_result="1.75 µM"
compound=CCN(Cc1ccccc1)C1CCN(Cc2cc(Br)ccc2O)CC1 assay_result="> 100 µM"
compound=COc1cc(Nc2ncc(-c3ccccc3)o2)cc(OC)c1 assay_result="> 25 µM"

----------
- System: HT29 colon
- ASSAY PROTOCOL: NCI tumour cell line growth inhibition, 48 h; in the data active = GI50 below about 0.43 µM; inactive = the rest
Outcome codes: true (active), false (inactive)

compound=COc1ccc2c(c1)[nH]c(=O)c1c3cccc(F)c3cn21 target_or_system="HT29 colon" label_value=true
compound=COc1ccc(C/C(=C(\C)c2ccc(OCCN3CCCC3)cc2)c2ccc(OCCN3CCCC3)cc2)cc1 target_or_system="HT29 colon" label_value=false
compound=CCc1ccc(CCC(=O)Nc2ncc(Cc3ccc(Cl)cc3)s2)o1 target_or_system="HT29 colon" label_value=true
compound="CC1=C(c2ccccc2)C(O)(c2ccccc2)C(C)C1=O (centres undefined)" target_or_system="HT29 colon" label_value=false
compound=C[C@]12CC[C@H]3[C@@H](CC=C4C[C@@H](N5CCCC5)CC[C@@]43C)[C@@H]1C/C(=C\c1cccc(OCCN3CCOCC3)c1)[C@@H]2O target_or_system="HT29 colon" label_value=false
compound=COC(=O)[C@H](Cc1cnc[nH]1)NC(=O)[C@@H](NC(=O)Nc1cc(C(F)(F)F)cc(C(F)(F)F)c1)C(C)C target_or_system="HT29 colon" label_value=false
compound="CC1=C2[C@@H](CC1)[C@]1(C)O[C@@](C(C)C)(C[C@H]1OC(=O)CO)[C@H]2OC(=O)C1CC1c1ccccc1 (some centres undefined)" target_or_system="HT29 colon" label_value=false
compound="C[CH2][Ge]([CH2]C)([CH2]C)[O]C(=O)C(OC(C)=O)c1ccccc1 (centres undefined)" target_or_system="HT29 colon" label_value=false
compound="Cc1csc2[n+]1-c1ccccc1N(C(=O)Nc1ccccc1)C(C)C2 (centres undefined)" target_or_system="HT29 colon" label_value=false
compound="CC1C(C)N(C(=O)CCl)c2ccccc2N1C(=O)CCl (centres undefined)" target_or_system="HT29 colon" label_value=true
compound=CC(C)(C)c1ccc(Oc2ccc(N)cn2)cc1 target_or_system="HT29 colon" label_value=false
compound=CCOCCCn1c2c(c3c(O)cccc31)C(=O)c1ccccc1-2 target_or_system="HT29 colon" label_value=false
compound=COc1ncc(Nc2ncc([C@@H](C)N3CCN(S(C)(=O)=O)CC3)cc2-c2nc(C)nc(N)n2)cc1F target_or_system="HT29 colon" label_value=true
compound=CNC(=O)c1c(NC(=O)c2ccc(C(C)(C)C)cc2)sc2c1CCC(=O)C2 target_or_system="HT29 colon" label_value=true
